Values from patent US8569336B2

Below is a list of entries, each paired with its recorded AUC value.
- Assay Protocol: Area under the curve determinations of plasma levels in rats (rrAUC), oral 10 mg/kg
- Format: in vivo
- Test Conditions: rat, plasma, blood collected 0.5-6 h post-dosing, read-out: RR AUC (rapid rat AUC, rrAUC)
Measured Attribute: AUC

>>> reported_measurement("COc1ccc2c(c1)C(=O)N(C[C@@]1(c3cc4nc(C#N)ccc4o3)NC(=O)NC1=O)C2")
"5.69 µM·h"
>>> reported_measurement("COc1ccc2c(c1)C(=O)N(C[C@@]1(c3cc4c5c(ccc4o3)CNC5=O)NC(=O)NC1=O)C2")
"0.304 µM·h"
>>> reported_measurement("COc1ccc2c(c1)C(=O)N(C[C@@]1(c3cc4cnc(C)nc4o3)NC(=O)NC1=O)C2")
"18 µM·h"
>>> reported_measurement("COc1ccc2c(c1)C(=O)N(C[C@@]1(c3cc4nc(-c5cccc(C#N)c5)ccc4o3)NC(=O)NC1=O)C2")
"22.1 µM·h"
>>> reported_measurement("COc1ccc2c(c1F)C(=O)N(C[C@@]1(c3cc4c5c(ccc4o3)C(=O)NC5)NC(=O)NC1=O)C2")
"0.437 µM·h"
>>> reported_measurement("COc1ccc2c(c1)C(=O)N(C[C@@]1(c3cc4c(C(C)O)nccc4o3)NC(=O)NC1=O)C2 (some centres unmarked)")
"0.154 µM·h"
>>> reported_measurement("COc1ccc2c(c1)C(=O)N(C[C@@]1(c3cc4c(OC)nccc4o3)NC(=O)NC1=O)C2")
"41.4 µM·h"
>>> reported_measurement("COc1ccc2c(c1)C(=O)N(C[C@@]1(c3cc4cc(C(=NO)N5CCN(C6CC6)CC5)ccc4o3)NC(=O)NC1=O)C2")
"0.013 µM·h"
>>> reported_measurement("COc1ccc2c(c1)C(=O)N(C[C@@]1(c3cc4c5c(ccc4o3)C(=O)NC5)NC(=O)NC1=O)C2")
"0.181 µM·h"
>>> reported_measurement("CNC(=O)c1ccc2oc([C@]3(CN4Cc5ccc(OC)cc5C4=O)NC(=O)NC3=O)cc2n1")
"1.07 µM·h"
>>> reported_measurement("COc1ccc2c(c1F)C(=O)N(C[C@@]1(c3cc4cc5c(c(F)c4o3)C(=O)NC5)NC(=O)NC1=O)C2")
"1.08 µM·h"
>>> reported_measurement("COc1ccc2c(c1)C(=O)N(C[C@@]1(c3cc4nc(N5CCN(C(C)=O)CC5)ccc4o3)NC(=O)NC1=O)C2")
"0.439 µM·h"
>>> reported_measurement("COc1ccc2c(c1)C(=O)N(C[C@@]1(c3cc4ccc(C(=O)NCCN(C)C)cc4o3)NC(=O)NC1=O)C2")
"0.104 µM·h"
>>> reported_measurement("COc1ccc2c(c1F)C(=O)N(C[C@@]1(c3cc4cnccc4o3)NC(=O)NC1=O)C2")
"2.31 µM·h"
>>> reported_measurement("COc1ccc2c(c1F)C(=O)N(C[C@@]1(c3cc4cc(F)c5c(c4o3)CNC5=O)NC(=O)NC1=O)C2")
"0.448 µM·h"
>>> reported_measurement("COc1ccc2c(c1)C(=O)N(C[C@@]1(c3cc4cnc(-c5cn[nH]c5)cc4o3)NC(=O)NC1=O)C2")
"0.046 µM·h"
>>> reported_measurement("COc1ccc2c(c1F)C(=O)N(C[C@@]1(c3cc4c5c(ccc4o3)CNC5=O)NC(=O)NC1=O)C2")
"1.12 µM·h"
>>> reported_measurement("COc1ccc2c(c1)C(=O)N(C[C@@]1(c3cc4cc(C(=O)N5CCN(C)CC5)ccc4o3)NC(=O)NC1=O)C2")
"0.057 µM·h"
>>> reported_measurement("COc1ccc2c(c1)C(=O)N(C[C@@]1(c3cc4cc(F)ncc4o3)NC(=O)NC1=O)C2")
"9.31 µM·h"
>>> reported_measurement("COc1ccc2c(c1)C(=O)N(C[C@@]1(c3cc4cnc(-c5cccc(C#N)c5)cc4o3)NC(=O)NC1=O)C2")
"10.6 µM·h"
>>> reported_measurement("CNS(=O)(=O)c1ccc2oc([C@]3(CN4Cc5ccc(OC)cc5C4=O)NC(=O)NC3=O)cc2c1")
"0.89 µM·h"
>>> reported_measurement("COc1ccc2c(c1F)C(=O)N(C[C@@]1(c3cc4cc5c(c(C)c4o3)C(=O)NC5)NC(=O)NC1=O)C2")
"1.05 µM·h"
>>> reported_measurement("CCc1nccc2oc([C@]3(CN4Cc5ccc(OC)cc5C4=O)NC(=O)NC3=O)cc12")
"3.56 µM·h"
